The origin of these recorded values is PubChem BioAssay.

target: Potassium voltage-gated channel subfamily KQT member 1 (Homo sapiens); assay: KCNQ1 channel current potentiators, confirmation, orthogonal assay for KCNQ1 potentiator project, IonWorks patch clamp, KCNQ1-CHO cells (AID 493184); details: automated patch clamp current, at 10 µM
Calls of active or inactive are those of the source.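 Rule for the calls: active = current rise at least 3 SD above the untreated control mean in each of two repeat wells; inactive = the rest.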
OBSERVED PROPERTY: current potentiation

{"columns": ["COMPOUND", "RESULT"],
 "data": [
  ["CCc1cc(-c2n[nH]c(C)c2-c2nc3ccccc3s2)c(O)cc1OCC(=O)NN", "inactive"],
  ["COC(=O)N/N=C/c1cc(C)n(-c2ccc(Br)cc2)c1C", "inactive"],
  ["CCc1ccc(/C=C/C(=O)c2cc(Br)ccc(=O)c2O)cc1", "inactive"],
  ["O=C(/C=C/c1ccco1)Nc1scc(-c2ccccc2)c1C(=O)O", "inactive"],
  ["O=C(NN=C1CCCCCC1)c1cc(-c2ccccc2)nc2ccccc12", "inactive"]
]}

Enquiry: Find the recorded current potentiation belonging to `CCOc1ccccc1NC(=O)C(=O)CC(=O)c1cccc(OC)c1` and report it.
Return: inactive

Enquiry: Then what about the compound Oc1[nH]c2ccc(Br)cc2c1N=NC(=S)NCC1CCCO1 (stereo unspecified) ?
Return: inactive

Enquiry: Then what about the compound `Cc1ccc(C)c(NC(=S)NNC(=O)c2csc(C(C)C)c2)c1` ?
Return: inactive

Enquiry: Then what about the compound CC1CCC(n2c(=S)[nH]c3ccccc3c2=O)CC1 (stereo unspecified) ?
Return: inactive

Enquiry: Then what about the compound COc1ccc(CCN(C)CC(O)COc2c(C)ccc(C)c2C)cc1OC (stereo unspecified) ?
Return: inactive

Enquiry: Then what about the compound CC(C)(C)C(=O)NC1CC2CCCC(C1)N2C(=O)Nc1ccccc1 (stereo unspecified) ?
Return: inactive
